Attribution: patent US20260053794A1

- Test system: Somatostatin Receptor 2 (SSTR2) (Homo sapiens, UniProt P30874)
- Sequence (P30874 whole entry, species assumed): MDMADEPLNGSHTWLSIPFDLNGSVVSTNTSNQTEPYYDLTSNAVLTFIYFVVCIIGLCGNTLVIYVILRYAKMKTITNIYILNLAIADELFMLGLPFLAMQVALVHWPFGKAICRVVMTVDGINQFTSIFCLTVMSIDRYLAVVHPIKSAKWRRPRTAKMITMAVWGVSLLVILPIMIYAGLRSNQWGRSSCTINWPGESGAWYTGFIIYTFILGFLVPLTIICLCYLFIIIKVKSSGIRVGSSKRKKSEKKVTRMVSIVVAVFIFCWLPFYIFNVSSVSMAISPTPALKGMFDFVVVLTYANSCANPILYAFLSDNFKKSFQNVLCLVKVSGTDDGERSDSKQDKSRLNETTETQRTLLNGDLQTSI
- Procedure summary: Biochemical Assay for Activation of Somatostatin Receptor 2 (SSTR2), Cisbio HTRF cAMP assay
- Condition parameters: average pEC50; HTRF cAMP assay in stably-transfected cell line expressing SSTR2; cells incubated with compounds for 1-2h
Readout type: EC50 (µM)

Problem: Kindly indicate its recorded EC50. Item: Fc1cc(F)cc(-c2cnc3ccc4cc3c2N2CCC(CC2)NCCCCCOc2cccc-4c2)c1
Solution: 0.00126

1: NC1CCN(c2c(-c3cc(F)cc(F)c3)cnc3ccc(-c4cc(F)cc(F)c4)cc23)CC1
2: CN1CCCCNC2CCN(CC2)c2c(-c3cc(F)cc(F)c3)cnc3ccc(cc23)-c2cccnc2C1=O
Problem: Decide: 1 or 2 , by lowest recorded EC50. Indicate your choice by writing its label.
Solution: 1

a: Cc1cc(F)cc(-c2cnc3c(nc(-c4cccc(C#N)c4O)n3C)c2N2CCC(N)CC2)c1
b: CO[C@@H]1CN(c2c(-c3cc(C)cc(F)c3)cnc3[nH]c(-c4cccc(C#N)c4O)nc23)CC[C@H]1N
c: NC1CCN(c2c(-c3nc4cc(F)c(F)cc4[nH]3)cnc3ncc4ccc(F)cc4c23)CC1
Problem: // ascending sort on recorded EC50 Write the labels out in the order the request specifies.
Solution: a, b, c
